Tested on: house flies
Test description: Knockdown and mortality of DHAA-based derivatives on house flies
Assay type: in vivo, house fly
Protocol conditions: 0.5% concentration
Label not fulfilled if House Fly Mortality at 0.5% concentration falls below 10%; label fulfilled in every other case.

| Molecule | Category label |
| --- | --- |
| Cc1cc(O)c(C(=O)CC(O)C(C)C)c(=O)o1 (centres unmarked) | fulfilled |
| Cc1cc(O)c(C(=O)COCc2ccccc2)c(=O)o1 | fulfilled |
| COCC(=O)c1c(O)cc(C)oc1=O | not fulfilled |
| CCOCC(=O)c1c(O)cc(C)oc1=O | not fulfilled |

====

Recorded Mosquito Mortality at 1.5% concentration for the following molecules
Tested on: adult female mosquitoes
Test description: whole plant or invertebrate
Protocol conditions: 1.5% concentration

| Molecule | Mosquito Mortality at 1.5% concentration, % |
| --- | --- |
| Cc1cc(O)c(C(=O)CSCC(=O)O)c(=O)o1 [Formula C6] | 15 |
| COCC(=O)c1c(O)cc(C)oc1=O [Formula C9] | 70 |
| Cc1cc(O)c(C(=O)COCc2ccccc2)c(=O)o1 [Formula C7] | 15 |
| Cc1cc(O)c(C(=O)CC(O)C(C)C)c(=O)o1 (centres unmarked) [Formula C10] | 100 |
| CCOCC(=O)c1c(O)cc(C)oc1=O [Formula C8] | 80 |
